B1: APBB1IP (parent)
chain: PPEPLSQVSMWDQRWQDHQPLLPI

Variants of: B1
Assay explanation: protein stability index of a GFP-peptide fusion (GPS, HEK-293T) (PSI 1-6); higher = more stable;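 also: lentivirally expressed fusions sorted by FACS into six bins by GFP to DsRed ratio, PSI derived from sequencing read proportions per bin multiplied by bin number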
Experimental conditions: c terminus: a fixed tail appended
Measured protein stability index values are reported for all entries that follow.
Returns: the value as a bare number; no unit string appended.

PPEPLSQVSMWDERWQDHQPLLPI : 3.56
EPEPLSQVSMWDQRWQDHQPLLPI : 2.84
PPEPLSQVSMMDQRWQDHQPLLPI : 3.57

Shifting focus to the variant that follows.
Any idea what its protein stability index is? The variant is PPEPLSQVSMGDQRWQDHQPLLPI
4.18
